Biological target: human, KCNT1 (Homo sapiens (Human))
Sequence (Q5JUK3 whole entry): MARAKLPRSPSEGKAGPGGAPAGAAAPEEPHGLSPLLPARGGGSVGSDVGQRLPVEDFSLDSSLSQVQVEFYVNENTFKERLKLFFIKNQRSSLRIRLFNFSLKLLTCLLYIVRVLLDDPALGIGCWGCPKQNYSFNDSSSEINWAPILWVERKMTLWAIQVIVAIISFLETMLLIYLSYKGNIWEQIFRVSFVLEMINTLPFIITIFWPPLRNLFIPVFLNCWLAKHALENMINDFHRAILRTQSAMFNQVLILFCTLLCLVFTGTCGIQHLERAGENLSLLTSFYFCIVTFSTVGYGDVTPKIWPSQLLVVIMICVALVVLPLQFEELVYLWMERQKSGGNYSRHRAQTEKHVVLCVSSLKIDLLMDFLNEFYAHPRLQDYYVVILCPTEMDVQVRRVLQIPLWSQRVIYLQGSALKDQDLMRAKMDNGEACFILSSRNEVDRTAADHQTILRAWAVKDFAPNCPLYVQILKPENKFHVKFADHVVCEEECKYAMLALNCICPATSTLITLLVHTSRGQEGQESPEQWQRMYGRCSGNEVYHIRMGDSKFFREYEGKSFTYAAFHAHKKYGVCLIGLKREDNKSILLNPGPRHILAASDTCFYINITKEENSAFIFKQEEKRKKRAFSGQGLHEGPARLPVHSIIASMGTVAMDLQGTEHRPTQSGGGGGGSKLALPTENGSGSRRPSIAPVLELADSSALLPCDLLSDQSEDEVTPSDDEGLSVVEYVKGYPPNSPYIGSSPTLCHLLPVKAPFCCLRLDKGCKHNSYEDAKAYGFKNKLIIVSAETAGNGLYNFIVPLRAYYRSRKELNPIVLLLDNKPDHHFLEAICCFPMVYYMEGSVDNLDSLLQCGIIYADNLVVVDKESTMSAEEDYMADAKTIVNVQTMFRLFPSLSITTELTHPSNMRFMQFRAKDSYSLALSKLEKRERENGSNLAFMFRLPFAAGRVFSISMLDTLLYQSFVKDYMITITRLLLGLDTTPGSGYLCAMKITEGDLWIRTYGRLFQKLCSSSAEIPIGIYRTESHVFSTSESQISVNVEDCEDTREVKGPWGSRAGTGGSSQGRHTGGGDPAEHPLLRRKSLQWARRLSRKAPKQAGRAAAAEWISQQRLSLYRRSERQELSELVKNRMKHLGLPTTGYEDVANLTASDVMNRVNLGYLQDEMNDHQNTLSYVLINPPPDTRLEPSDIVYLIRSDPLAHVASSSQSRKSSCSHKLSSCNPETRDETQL
Assay: FLIPR Tl/K Flux Assay
Details: HEK293 cells stably expressing human KCNT1; Tl+ flux stimulated with EC80 of agonist Loxapine
QUANTITY_KIND: IC50

# annotated cases, reported IC50 shown
- MOLECULE: "O=C(N[C@H]1CCCn2nc(-c3ccnc(C(F)(F)F)c3)cc21)c1cc(F)cc(C2CC2)c1 [Compound I-580a]"
  TARGET_SYSTEM: "human, KCNT1 (Homo sapiens (Human))"
  MEASURED_VALUE: "< 250 nM"
- MOLECULE: "Cn1nc(C(F)(F)F)cc1C(=O)N[C@H]1CCCn2nc(-c3ccnc(C(C)(C)O)c3)cc21 [Compound I-444a]"
  TARGET_SYSTEM: "human, KCNT1 (Homo sapiens (Human))"
  MEASURED_VALUE: "500 to 1000 nM"
- MOLECULE: "O=C(N[C@H]1CCc2nn(-c3ccnc(C4CC4)c3)cc21)c1cc(F)cc(F)c1 [Compound I-462a]"
  TARGET_SYSTEM: "human, KCNT1 (Homo sapiens (Human))"
  MEASURED_VALUE: "< 250 nM"

## Task # input molecule: COc1cc(-c2cc3n(n2)CCCC[C@H]3NC(=O)c2cc(F)cc(C#N)c2)c(F)cn1 [Compound I-516b] ; wanted: its IC50
## Result 500 to 1000 nM

## Task Return reported IC50; argument: COc1cc(-c2cc3n(n2)CCC[C@@H]3NC(=O)c2cccc(C(F)(F)F)n2)ccn1 [Compound I-356a]
## Result 250 to 500 nM

## Task May I ask what IC50 has been recorded for Cn1nc(C(F)(F)F)cc1C(=O)N[C@@H]1CCc2cnc(-c3ccnc(C(F)(F)F)c3)nc21 [Compound I-46b] ?
## Result > 1000 nM

## Task Requested read-out: IC50. Entry: Cc1cc(C#N)cc(C(=O)N[C@H]2CCn3nc(-c4cc(C(F)(F)F)ncc4F)cc32)c1 [Compound I-140a]
## Result < 250 nM

----------
Biological target: UniProt:Q5JUK3
Experiment: FLIPR Tl/K Flux Assay
Details: HEK293 cells stably expressing human KCNT1; Tl+ flux stimulated with EC80 of agonist Loxapine
pIC50: −log10 of the molar value.
Each entry below lists one item and its recorded pIC50 value.

Take a look at these entries with their results.
- MOLECULE: "O=C(N[C@H]1CCCc2oc(-c3ccnc(C4CC4)c3)nc21)c1cncc(C(F)(F)F)c1 [Compound I-137a]"
  MEASURED_VALUE: "> 6.60"
- MOLECULE: "CC(C)(C)C(=O)N[C@H]1CCc2nn(-c3ccnc(C(F)(F)F)c3)cc21 [Compound I-104a]"
  MEASURED_VALUE: "6.00 to 6.30"

## Task Item under review: CC(C)(O)c1cc(F)cc(C(=O)N[C@H]2CCn3nc(-c4ccnc(C(F)(F)F)c4)cc32)c1 [Compound I-570a] . Reported pIC50?
## Result > 6.60

## Task For the molecule shown here, CC1(C)CC(C(=O)N[C@H]2CCn3nc(-c4cc(C(F)(F)F)ncc4F)cc32)C1 [Compound I-523a] , give the reported pIC50.
## Result > 6.60

----------
Molecular target: UniProtKB Q5JUK3
Experiment: FLIPR Tl/K Flux Assay
Conditions: HEK293 cells stably expressing human KCNT1; Tl+ flux stimulated with EC80 of agonist Loxapine
pIC50: −log10 of the molar value.
QUANTITY_KIND: pIC50

Would you please look over these solved cases?
- COMPOUND: "Cc1cc(F)cc(C(=O)N[C@H]2CCc3nn(-c4ccnc(C(F)(F)F)c4)cc32)c1 (single isomer, unassigned) [Compound I-384a]"
  MEASURED_VALUE: "> 6.60"
- COMPOUND: "O=C(N[C@H]1CCCn2nc(-c3ccnc(C(F)(F)F)c3)cc21)c1ccnc(OC(F)(F)F)c1 [Compound I-213a]"
  MEASURED_VALUE: "> 6.60"
- COMPOUND: "Cn1nc(C(F)(F)F)cc1C(=O)N[C@H]1CCCc2sc(-c3ccnc(C(F)(F)F)c3)nc21 [Compound I-80a]"
  MEASURED_VALUE: "6.00 to 6.30"

Switching to the query record.
## Task Dear colleague, I am looking for the recorded pIC50 of the following compound: Cn1nc(C(F)(F)F)cc1C(=O)N[C@H]1CCCc2cn(-c3ccnc(C(F)(F)F)c3)nc21 [Compound I-87a]
## Result 6.00 to 6.30
